Test system: SK-OV-3 ovarian
method: NCI tumour cell line growth inhibition, 48 h
experimental_readout: TGI (µM)
API: value field is a number in µM; no unit string.

// query Please tell me: TGI of CCCCCCCCCCCCCCCCCCNc1ccn(C2OC(COP(=O)(O)OCC3OC(n4cc(C)c(=O)[nH]c4=O)CC3O)C(O)C2O)c(=O)n1 (centres undefined) , system SK-OV-3 ovarian?
// result 31.8

// query What about this compound? CC(SC(C)C(=O)N/N=C/c1cccc(Cl)c1)C(=O)N/N=C\c1cccc(Cl)c1 (centres undefined)
// result 31.2

// query What about this compound? COc1ccc2nc3ccc(OC)cc3c(S(=O)CCCl)c2c1 (centres undefined)
// result 40.2

// query What about this compound? CC1OC2CC(=O)OC2C2=C1C(=O)c1c(O)cccc1C2=O (centres undefined)
// result 2.67

// query What about this compound? COc1cc(C2c3cc4c(cc3OC(N3CCCC3)C2C)OCO4)cc(OC)c1O (centres undefined)
// result 62.4

---

System: SW-620 colon
method: NCI tumour cell line growth inhibition, 48 h
experimental_readout: TGI

// query Recorded TGI of Cc1ccc(C(SCC(N)C(=O)O)(c2ccccc2)c2ccc(C)cc2)cc1 (stereo unspecified) , please.
// result 14.8 µM

// query What about this compound? `CNn1c(-c2ccccc2)n[nH]c1=O`
// result > 100 µM

// query What about this compound? CCOC(=O)C1=CC(C)(C(=O)OCC)Nc2c(nc(OC)n(C)c2=O)N1 (stereo unspecified)
// result > 10 µM

// query What about this compound? `CN(C)Cc1cc(C(=O)/C=C/c2ccc(Cl)cc2)cc(CN(C)C)c1O`
// result 20.5 µM

// query What about this compound? CCCCOC(=O)C1C(c2ccc(Cl)cc2)NC(c2ccc(Cl)cc2)C(C(=O)OCCCC)S1(=O)=O (stereo unspecified)
// result > 100 µM

// query What about this compound? `COCCOCc1nc(C#N)c(N)o1`
// result > 100 µM

// query What about this compound? `Oc1[nH]c2ccccc2c1N=Nc1ccccc1Cl`
// result > 100 µM

// query What about this compound? `O=C(NCCCCCCNC(=O)c1cccc2ccccc12)Nc1cccc2ccccc12`
// result > 100 µM

// query What about this compound? `O=Cc1cc2c(cc1-c1c(C=O)ccc3c1OCO3)OCO2`
// result > 10 µM

// query What about this compound? CC(SC(C)C(=O)N/N=C/c1cccc(Cl)c1)C(=O)N/N=C\c1cccc(Cl)c1 (stereo unspecified)
// result 6.65 µM

// query What about this compound? COc1ccc(C2CC(=O)CC(c3ccc(OC)cc3)C23C(=O)NC(=O)NC3=O)cc1 (stereo unspecified)
// result 50.2 µM

---

For each entry below, report its TGI value.
System: HCT-15 colon
method: NCI tumour cell line growth inhibition, 48 h

// query Please tell me: TGI of `COc1ccc(N=C2SC(=N/N=c3\sc4ccccc4n3C)SC2=Nc2ccc(OC)cc2)cc1` , system HCT-15 colon?
// result > 100 µM

// query What about this compound? `O=C(Nc1ccc(OS(=O)(=O)c2ccccc2)cc1)C12CC3CC(CC(C3)C1)C2`
// result > 100 µM

// query What about this compound? NC(=O)C(N)Cc1ccc(O)cn1 (stereo not drawn)
// result > 100 µM

// query What about this compound? `O=S(=O)([O-])c1ccc2c(c1)-c1nc-2nc2[n-]c(nc3nc(nc4[n-]c(n1)c1ccc(S(=O)(=O)[O-])cc41)-c1cc(S(=O)(=O)[O-])ccc1-3)c1ccc(S(=O)(=O)[O-])cc21.[Cu+2].[Na+]`
// result 36.4 µM

// query What about this compound? `CN1C(=O)N/C(=C\c2ccc(S(=O)(=O)NN)cc2)C1=O`
// result > 100 µM

// query What about this compound? `COC(=O)C1=C(c2ccc3c(c2)OCO3)O[C@H](c2cc(OC)c(OC)c(OC)c2)[C@H]1COC(C)=O`
// result > 100 µM

// query What about this compound? `CNn1c(-c2ccccc2)n[nH]c1=O`
// result > 100 µM

// query What about this compound? `CN(c1ccc(Cl)cc1)S(=O)(=O)c1ccc([N+](=O)[O-])cc1`
// result > 100 µM

// query What about this compound? CC(=O)NC1C(OCc2ccccc2)OC(CO)C(O)C1OC(C)C(=O)NC(C)C(=O)NC(CCC(=O)NCCCNc1c2ccccc2nc2cccc([N+](=O)[O-])c12)C(N)=O (stereo not drawn)
// result 7.3 µM

// query What about this compound? `CCC1(CC)SCc2nc3ccccc3n21`
// result > 100 µM

// query What about this compound? `Cc1ccc(/C=N/n2c(=O)[nH]c3ccccc3c2=O)cc1`
// result > 100 µM

// query What about this compound? `Oc1[nH]c2ccccc2c1N=Nc1ccccc1Cl`
// result > 100 µM

// query What about this compound? COc1cc(/C=C2\CCC(C)C3C2=NN(C(C)=O)C3c2cc(OC)c(OC)c(OC)c2)cc(OC)c1OC (stereo not drawn)
// result > 100 µM

// query What about this compound? COC(=O)C12C3C4C1C1C2C3C41C(=O)OC(C)(C)C (stereo not drawn)
// result > 100 µM

// query What about this compound? `C=C(C)[C@@]12OC3(/C=C/C=C/CCCCC)O[C@@H]1[C@@H]1[C@@H]4O[C@]4(CO)[C@@H](O)[C@]4(O)C(=O)C(C)=C[C@H]4[C@@]1(O3)[C@H](C)[C@H]2OC(=O)c1ccccc1`
// result 2.9 µM

// query What about this compound? `C[C@H]1c2cccc(O)c2C(O)=C2C(=O)[C@]3(O)C(O)=C(C(N)=O)C(=O)[C@@H](N(C)C)[C@@H]3[C@@H](O)[C@@H]21`
// result 16 µM

// query What about this compound? `CC(=O)n1nc(-c2ccccc2)n(/N=C/c2ccc([N+](=O)[O-])cc2)c1=O`
// result > 100 µM

// query What about this compound? `Oc1ccc2ccccc2c1/C=C/c1ccc2c(Br)cc(Br)c(O)c2n1`
// result 17.5 µM

---

Tested on: NCI-H522 lung
method: NCI tumour cell line growth inhibition, 48 h; in the data active = GI50 below about 0.43 µM; inactive = the rest
A correct response names exactly one class from active, inactive

// query # fetch the recorded call for `O=C1NC(=Nc2ccccc2)S/C1=C\c1ccc2ncccc2c1` here
// result inactive

// query What about this compound? `Cn1c(=O)c2c(nc(Nc3cc(=O)[nH]c(=O)[nH]3)n2Cc2ccccc2)n(C)c1=O`
// result inactive

// query What about this compound? `O=S(=O)([O-])c1ccc2c(c1)-c1nc-2nc2[n-]c(nc3nc(nc4[n-]c(n1)c1ccc(S(=O)(=O)[O-])cc41)-c1cc(S(=O)(=O)[O-])ccc1-3)c1ccc(S(=O)(=O)[O-])cc21.[Cu+2].[Na+]`
// result inactive

// query What about this compound? `CC(C)=C[C@@H]1C[C@H](C)[C@H]2CC[C@H](C)C3=C2[C@](O)(OC3=O)[C@]1(C)O`
// result inactive

// query What about this compound? `O=C(Nc1ccc(OS(=O)(=O)c2ccccc2)cc1)C12CC3CC(CC(C3)C1)C2`
// result inactive

// query What about this compound? `Clc1coc2nc3ccccc3c(Nc3ccc4c(c3)OCO4)c12`
// result inactive

// query What about this compound? `O=S(=O)(Nc1cc(F)cc(Cl)c1)c1ccc(-c2cnc(C3CC3)o2)cc1`
// result inactive

// query What about this compound? Cc1ccc(C(SCC(N)C(=O)O)(c2ccccc2)c2ccc(C)cc2)cc1 (stereo not drawn)
// result active

// query What about this compound? COc1ccc(N2C(=O)C(c3ccccc3)(c3ccccc3)C23C(=O)N(C)c2ccccc23)cc1 (stereo not drawn)
// result inactive

// query What about this compound? COc1ccc2c(c1)CCC1C2CC[C@@]2(C)C1CC1=CC(COC(C)=O)C3C(=O)c4ccccc4C(=O)C3C12 (stereo partly drawn)
// result inactive

// query What about this compound? `Cc1c2cccnc2c(C)c2c1c1cc(CO)ccc1n2C`
// result inactive

// query What about this compound? `CC(C)c1ccc(Nc2ccc3c(OCCCN4CCN(C)CC4)cccc3n2)cc1`
// result inactive

// query What about this compound? `COc1ccc(C(=O)c2cc(OC)c(C)c(OC)c2)cc1OC(=O)CCl`
// result active

// query What about this compound? CC(=O)OC1Oc2ccccc2-c2oc(=O)c(-c3cc(=O)oc4cc(O)ccc34)cc21 (stereo not drawn)
// result inactive

// query What about this compound? `Cc1ccc2c(n1)C(=O)c1[nH]c3ccccc3c1C2=O`
// result inactive

// query What about this compound? `CCN1CCN(c2ccc(Nc3cc(N(C)C(=O)Nc4c(Cl)c(OC)cc(OC)c4Cl)ncn3)cc2)CC1`
// result inactive

// query What about this compound? `CNCCNc1c2c(c(NCCNC)c3c(CN(C)C)c[nH]c13)C(=O)c1ccccc1C2=O`
// result inactive

// query What about this compound? `O=C(OCc1ccc2cccc(O)c2n1)N1CCN(C(=O)c2cc3cc(F)ccc3[nH]2)CC1`
// result inactive
